# measuredOn: Inadl_3, Q8NI35
# Sequence (Q8NI35 359-469): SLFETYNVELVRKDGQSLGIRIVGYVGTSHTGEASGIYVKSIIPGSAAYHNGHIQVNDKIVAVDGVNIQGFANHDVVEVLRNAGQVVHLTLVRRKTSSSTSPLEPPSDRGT
# measurementNotes: holdup assay
# Parameters: key: below the threshold = too weak to quantify, mostly under pKd 3.1 to 4
# conditionSummary: plain residues with an end cap or a label only (N-terminal biotin on a linker: ado-ado)
outcomeMeasure: pKd

> print(dat)
                         binder        endpointvalue
1    FVHPILQSAV [PRKCA, P17252]  below the threshold
2  TETASVCTKV [SLC23A1, Q9UHI7]  below the threshold
3     EDLTKNHDEL [RCN1, Q15293]  below the threshold
